# TARGET OF ASSAY: human JAK1 (a.a. 837-1142) (Homo sapiens, UniProt P23458)
# Construct: human JAK1 (a.a. 837-1142); His tag (N); made in house; host or cells: insect cells (baculovirus)
# Sequence (P23458 849-1154): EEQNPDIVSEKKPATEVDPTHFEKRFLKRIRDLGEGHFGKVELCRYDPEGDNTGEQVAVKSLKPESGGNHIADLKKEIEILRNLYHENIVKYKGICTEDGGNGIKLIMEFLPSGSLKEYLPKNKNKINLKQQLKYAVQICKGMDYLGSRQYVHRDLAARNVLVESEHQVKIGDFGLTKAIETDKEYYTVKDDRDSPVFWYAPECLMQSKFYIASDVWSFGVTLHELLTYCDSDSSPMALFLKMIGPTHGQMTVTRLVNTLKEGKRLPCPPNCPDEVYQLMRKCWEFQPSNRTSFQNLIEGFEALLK
# ASSAY: In vitro JAK kinase assay (HTRF, phosphorylation of a biotinylated peptide), JAK1
# Type: biochemical
# RUN PARAMETERS: method AA1 (90 μM ATP) or AA2 (1000 μM ATP), not stated per value; read-out: JAK1 IC50
Structures can show the parent of a compound that is named as a salt.
OBSERVED PROPERTY: IC50 (nM)
Please state the figure in nM; there is no need to write the unit.

Field request: IC50 | item: O=C(CC1CCN(C(=O)Nc2cccnc2)CC1)Nc1ccc2cc1CCc1cncc(c1)Nc1ncc(Cl)c(n1)N2 [Example A144, bis(trifluoroacetate)]
1.2

Param item = N#Cc1cccc(S(=O)(=O)N2CCC(CC(=O)Nc3ccc4cc3CCc3cncc(c3)Nc3ncc(Cl)c(n3)N4)CC2)c1 [Example A228, bis(trifluoroacetate)] ; retrieve measured IC50.
6.9

Sample CC(C)(C)NC(=O)N1CCC(CC(=O)Nc2ccc3cc2CCc2cccc(c2)Nc2ncc(Cl)c(n2)N3)CC1 [Example A85, trifluoroacetate] — what was its IC50?
49

Query: IC50; subject: O=C(CN1CCNCC1)Nc1ccc2cc1CCc1cncc(c1)Nc1ncc(Cl)c(n1)N2 [Example A115]
34

Return reported IC50; argument: CC(C)(C)C(=O)N1CCC(CC(=O)Nc2ccc3cc2CCc2cncc(c2)Nc2ncc(Cl)c(n2)N3)CC1 [Example A112, bis(trifluoroacetate)]
8

Any idea what its IC50 is? The compound is Cc1noc(C)c1C(=O)N1CCC(C(=O)Nc2ccc3cc2CCc2cccc(c2)Nc2ncc(Cl)c(n2)N3)CC1 [Example A34, trifluoroacetate]
446

Entry O=C(CC1CCN(C(=O)c2ccon2)CC1)Nc1ccc2cc1CCc1cncc(c1)Nc1ncc(Cl)c(n1)N2 [Example A135, bis(trifluoroacetate)] has what IC50?
0.4

Which measured IC50 value corresponds to O=C(CC1CCN(S(=O)(=O)c2ccccc2)CC1)Nc1ccc2cc1CCc1cncc(c1)Nc1ncc(Cl)c(n1)N2 [Example A195, bis(trifluoroacetate)] ?
7.1

Please report the recorded IC50 for O=C(CN1CCN(c2nc3cccnc3o2)CC1)Nc1ccc2cc1CCc1cncc(c1)Nc1ncc(Cl)c(n1)N2 [Example A118, tris(trifluoroacetate)] .
0.9

Fill in: IC50 of O=C(CC1CCN(C(=O)Nc2ccccc2)CC1)Nc1ccc2cc1CCc1cncc(c1)Nc1ncc(Cl)c(n1)N2 [Example A77, bis(trifluoroacetate)] is ___
0.6

# IC50 lookup, item O=C(CC1CCN(C(=O)c2nccs2)CC1)Nc1ccc2cc1CCc1cncc(c1)Nc1ncc(Cl)c(n1)N2 [Example A133, bis(trifluoroacetate)]
2.1

Form field: reported IC50 of COc1ccc(S(=O)(=O)N2CCC(CC(=O)Nc3ccc4cc3CCc3cccc(c3)Nc3ncc(Cl)c(n3)N4)CC2)cc1 [Example A207, trifluoroacetate]
85

---

# TARGET OF ASSAY: human JAK3 (a.a. 781-1124) (Homo sapiens, UniProt P52333)
# Construct: JAK3 (a.a. 781-1124); His tag (N); made in house; host or cells: insect cells (baculovirus)
# Sequence (P52333 781-1124): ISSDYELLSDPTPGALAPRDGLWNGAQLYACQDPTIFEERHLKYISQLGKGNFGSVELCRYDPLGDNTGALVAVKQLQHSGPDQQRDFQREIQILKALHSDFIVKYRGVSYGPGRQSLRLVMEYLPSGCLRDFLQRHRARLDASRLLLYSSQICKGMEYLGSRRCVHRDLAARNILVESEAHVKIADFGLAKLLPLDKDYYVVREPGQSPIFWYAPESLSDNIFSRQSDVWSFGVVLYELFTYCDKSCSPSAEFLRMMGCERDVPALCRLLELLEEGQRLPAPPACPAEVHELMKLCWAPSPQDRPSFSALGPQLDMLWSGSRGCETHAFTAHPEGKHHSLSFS
# ASSAY: In vitro JAK kinase assay (HTRF, phosphorylation of a biotinylated peptide), JAK3
# Assay type: biochemical
# RUN PARAMETERS: Table D1
Counter-ions that a name gives are not always drawn.
OBSERVED PROPERTY: IC50 (nM)
Please state the figure in nM; there is no need to write the unit.

What does the record list as IC50 for O=C(Nc1ccccc1)N1CCN(c2cc(-c3cc4cc(c3)Nc3ncc(Cl)c(n3)Nc3cccc(c3)OCC4)ccn2)CC1 [Example D44, bis(trifluoroacetate)] ?
18

// IC50 lookup, key: CC(=O)N1CCN(c2ccc3cc2CCc2cccc(c2)Nc2ncc(Cl)c(n2)N3)CC1 [Example D85, bis(trifluoroacetate)]
31

What does the data say about its IC50? Entry: O=C(Nc1ccc2[nH]ccc2c1)c1cc2cc(c1)OCCSc1cccc(c1)Nc1nc(ncc1Cl)N2 [Example D56, trifluoroacetate]
42

---

Hi there, I'd appreciate the recorded IC50 for every entry that follows.
# TARGET OF ASSAY: TYK2 (Homo sapiens)
# Sequence (P29597 whole entry): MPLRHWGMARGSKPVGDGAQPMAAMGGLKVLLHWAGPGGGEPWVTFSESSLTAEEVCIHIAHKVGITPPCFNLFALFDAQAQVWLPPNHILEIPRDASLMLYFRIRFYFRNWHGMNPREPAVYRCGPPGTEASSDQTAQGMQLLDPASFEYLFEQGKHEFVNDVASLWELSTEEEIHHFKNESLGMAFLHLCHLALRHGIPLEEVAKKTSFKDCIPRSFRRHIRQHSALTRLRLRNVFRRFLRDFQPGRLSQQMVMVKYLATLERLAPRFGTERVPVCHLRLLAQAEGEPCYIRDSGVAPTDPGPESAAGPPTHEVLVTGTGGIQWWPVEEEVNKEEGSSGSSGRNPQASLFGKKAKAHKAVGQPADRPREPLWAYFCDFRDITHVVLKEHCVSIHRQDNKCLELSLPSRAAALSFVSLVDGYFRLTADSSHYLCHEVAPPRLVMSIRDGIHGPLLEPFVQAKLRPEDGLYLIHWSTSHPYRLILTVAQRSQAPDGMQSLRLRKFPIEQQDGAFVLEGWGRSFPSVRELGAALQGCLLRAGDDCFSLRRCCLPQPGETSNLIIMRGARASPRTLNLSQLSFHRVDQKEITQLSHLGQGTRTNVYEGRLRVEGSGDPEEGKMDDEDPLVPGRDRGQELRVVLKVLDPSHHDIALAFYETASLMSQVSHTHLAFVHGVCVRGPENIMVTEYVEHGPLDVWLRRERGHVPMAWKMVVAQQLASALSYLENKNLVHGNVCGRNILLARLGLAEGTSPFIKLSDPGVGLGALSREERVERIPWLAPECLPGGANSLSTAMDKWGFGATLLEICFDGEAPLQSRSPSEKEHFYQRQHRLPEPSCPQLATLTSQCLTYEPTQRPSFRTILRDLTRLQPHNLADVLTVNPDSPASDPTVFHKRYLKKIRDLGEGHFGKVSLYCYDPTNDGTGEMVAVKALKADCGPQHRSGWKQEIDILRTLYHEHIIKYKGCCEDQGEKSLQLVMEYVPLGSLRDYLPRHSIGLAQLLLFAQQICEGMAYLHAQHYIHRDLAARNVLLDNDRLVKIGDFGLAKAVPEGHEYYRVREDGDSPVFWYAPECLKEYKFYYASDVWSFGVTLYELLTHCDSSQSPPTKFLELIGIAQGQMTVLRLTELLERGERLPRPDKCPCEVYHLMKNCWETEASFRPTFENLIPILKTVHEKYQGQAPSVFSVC
# ASSAY: TYK2 kinase inhibition (Table A1)
# Type: biochemical
Counter-ions that a name gives are not always drawn.
Please give a number only; it is taken to be in µM.

Given CC(=O)N1CCC(CC(=O)Nc2ccc3cc2CCc2cccc(c2)Nc2ncc(Cl)c(n2)N3)CC1 [Example A55, trifluoroacetate] , state its recorded IC50.
0.0023

Name the recorded IC50 for CC(=O)N1CCN(CC(=O)Nc2ccc3cc2CCc2cncc(c2)Nc2ncc(Cl)c(n2)N3)CC1 [Example A127, tris(trifluoroacetate)] .
0.059

Given the compound O=C(CC1CCN(c2nc3cccnc3o2)CC1)Nc1ccc2cc1CCc1cccc(c1)Nc1ncc(Cl)c(n1)N2 [Example A126, bis(trifluoroacetate)] , what is its reported IC50?
0.0075

Form field: reported IC50 of Cc1ccc(N2CCC(CC(=O)Nc3ccc4cc3CCc3cncc(c3)Nc3ncc(Cl)c(n3)N4)CC2)nn1 [Example A173, tris(trifluoroacetate)]
0.105

Quick one: IC50 of Cn1cc(C(=O)N2CCC(CC(=O)Nc3ccc4cc3CCc3cncc(c3)Nc3ncc(Cl)c(n3)N4)CC2)cn1 [Example A129, bis(trifluoroacetate)] ?
0.024

I have this compound here, CS(=O)(=O)N1CCC(CC(=O)Nc2ccc3cc2CCc2cncc(c2)Nc2ncc(Cl)c(n2)N3)CC1 [Example A79, bis(trifluoroacetate)] , and I need its recorded IC50.
0.0036

Reported IC50, compound O=C(Nc1ccc2cc1CCc1cccc(c1)Nc1ncc(Cl)c(n1)N2)C1CCN(C(=O)NC2CCCC2)CC1 [Example A61, trifluoroacetate] : ____
0.022

Reported IC50 for Clc1cnc2nc1Nc1cccc(c1)CCc1cc(ccn1)N2 [Example C12] : what is it?
0.013

Query: IC50; subject: NC(=O)COc1cc2cc(c1)Nc1nc(ncc1Cl)Nc1cccc(c1)CC2 [Example A23]
0.037

Return reported IC50; argument: N#Cc1c(Cl)cncc1N1CCC(CC(=O)Nc2ccc3cc2CCc2cncc(c2)Nc2ncc(Cl)c(n2)N3)CC1 [Example A240, tris(trifluoroacetate)]
0.244

Recorded IC50 for O=C(CC1CCN(C(=O)Nc2ccc(F)cc2)CC1)Nc1ccc2cc1CCc1cncc(c1)Nc1ncc(Cl)c(n1)N2 [Example A148, bis(trifluoroacetate)] , please?
0.0039

Would you kindly share the measured IC50 for COc1cccc(N2CCC(CC(=O)Nc3ccc4cc3CCc3cncc(c3)Nc3ncc(Cl)c(n3)N4)CC2)c1C#N [Example A233, tris(trifluoroacetate)] ?
0.026

Could you share which IC50 value was measured for NS(=O)(=O)N1CCC(CC(=O)Nc2ccc3cc2CCc2cccc(c2)Nc2ncc(Cl)c(n2)N3)CC1 [Example A75, trifluoroacetate] ?
0.0003

Give its IC50 value. Item: CN(C)C(=O)N1CCC(CC(=O)Nc2ccc3cc2CCc2cncc(c2)Nc2ncc(Cl)c(n2)N3)CC1 [Example A95, bis(trifluoroacetate)]
0.009

Can you look up the measured IC50 of O=C(Cc1cccs1)Nc1ccc2cc1CCc1cccc(c1)Nc1ncc(Cl)c(n1)N2 [Example C42, trifluoroacetate] for me?
0.096

Fill in: IC50 of Cc1cc(N2CCC(CC(=O)Nc3ccc4cc3CCc3cncc(c3)Nc3ncc(Cl)c(n3)N4)CC2)no1 [Example A247, bis(trifluoroacetate)] is ___
0.084

Quick check: IC50 of O=S1(=O)NCc2cccc(c2)Nc2nc(ncc2Cl)Nc2cccc1c2 [Example C3] ?
0.091

IC50 lookup needed for N#Cc1cccc(S(=O)(=O)N2CCC(CC(=O)Nc3ccc4cc3CCc3cncc(c3)Nc3ncc(Cl)c(n3)N4)CC2)c1 [Example A228, bis(trifluoroacetate)] , thanks.
0.109

Requested field: IC50. Item: O=C(CC1CCN(C(=O)NC2CCCC2)CC1)Nc1ccc2cc1CCc1cccc(c1)Nc1ncc(Cl)c(n1)N2 [Example A64, trifluoroacetate]
0.023

Find the recorded IC50 belonging to O=C(Cc1noc2ccccc12)Nc1ccc2cc1CCc1cccc(c1)Nc1ncc(Cl)c(n1)N2 [Example C45, trifluoroacetate] and report it.
0.544

Which IC50 value belongs to O=C(CC1CCN(S(=O)(=O)c2ccccc2)CC1)Nc1ccc2cc1CCc1cncc(c1)Nc1ncc(Cl)c(n1)N2 [Example A195, bis(trifluoroacetate)] ?
0.14

Sample Cc1nc(C)c(S(=O)(=O)N2CCC(CC(=O)Nc3ccc4cc3CCc3cncc(c3)Nc3ncc(Cl)c(n3)N4)CC2)s1 [Example A232, bis(trifluoroacetate)] — what was its IC50?
0.326

Sample CC(C)(C)NC(=O)N1CCC(CC(=O)Nc2ccc3cc2CCc2cccc(c2)Nc2ncc(Cl)c(n2)N3)CC1 [Example A85, trifluoroacetate] — what was its IC50?
0.033

Dear colleague, I am looking for the recorded IC50 of the following compound: CN(C)S(=O)(=O)N1CCC(CC(=O)Nc2ccc3cc2CCc2cncc(c2)Nc2ncc(Cl)c(n2)N3)CC1 [Example A96, bis(trifluoroacetate)]
0.011
